Assay: chemical genetic growth profiling, strain panel (AID 1159580);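 further: tested at 20 µM; growth read once vehicle control cultures reached saturation at 30 °C; 1 = growth at the plate median or of vehicle wells; lower values mean less growth of the strain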
Settings: S. cerevisiae deletion strains, growth OD, locus YDL074C, strain BRE1, active compounds read low
Hit rate of the full screen: of about 5,500 compounds, about 2,000 (36%) were called active. Roughly 18% stayed inconclusive and do not appear here. Some of the results follow.
Reported Endpoint: normalized growth
// no unit string in output, number only

The following molecules have reported results that may help.
>>> reported_value("CC1(C)C(O)CC(=O)C2(C)C1CC(O)C1(C)C2CCC2(C)C(c3ccoc3)OC(=O)C3OC321 (centres undefined)")
0.976
>>> reported_value("CC1(C)S[C@@H]2[C@H](NC(=O)C(C(=O)O)c3ccccc3)C(=O)N2[C@H]1C(=O)O (some centres undefined)")
0.995
>>> reported_value("O=C(CCCN1CCC(O)(c2ccc(Cl)cc2)CC1)c1ccc(F)cc1")
0.739
>>> reported_value("CCCCC(=O)O[C@]1(C(=O)CO)[C@@H](C)CC2C3CCC4=CC(=O)C=C[C@]4(C)[C@@]3(F)C(O)C[C@@]21C (some centres undefined)")
0.979
>>> reported_value("CC1(C)O[C@@H]2CC3C4C[C@H](F)C5=CC(=O)CC[C@]5(C)C4[C@@H](O)C[C@]3(C)[C@]2(C(=O)CO)O1 (some centres undefined)")
1.04
>>> reported_value("CSCCC(N)C(=O)NC(CC(C)C)C(=O)NC(Cc1ccccc1)C(=O)O (centres undefined)")
1.05
>>> reported_value("CC[C@H]1CN2CCC1C[C@@H]2[C@@H](O)c1ccnc2ccc(OC)cc12 (some centres undefined)")
1.01
>>> reported_value("Cc1ccccc1N1C(=O)c2cc(S(N)(=O)=O)c(Cl)cc2NC1C (centres undefined)")
1.02
>>> reported_value("COC(=O)C(N)CS (centres undefined)")
0.98
>>> reported_value("CC1=CC(=O)C2C(C)(C)CCC[C@]2(C)[C@@]1(O)CCc1ccoc1 (some centres undefined)")
0.995

Ask: What does the data say about its normalized growth? Entry: "COc1ccc(-c2cc(=O)c3c(O)c(OC)c(O[C@H]4O[C@H](CO[C@@H]5O[C@@H](C)[C@H](O)[C@@H](O)[C@H]5O)[C@@H](O)[C@H](O)[C@H]4O)cc3o2)cc1"
Reply: 1.01

Ask: What does the data say about its normalized growth? Entry: CCC(=O)O[C@]1(C(=O)CCl)[C@@H](C)CC2C3CCC4=CC(=O)C=C[C@]4(C)[C@@]3(F)[C@@H](O)C[C@@]21C (some centres undefined)
Reply: 0.975

Ask: What does the data say about its normalized growth? Entry: CC1CCCC(C)N1NC(=O)c1ccc(Cl)c(S(N)(=O)=O)c1 (centres undefined)
Reply: 0.991

Ask: What does the data say about its normalized growth? Entry: "CO[C@@H]1[C@@H](OC(N)=O)[C@@H](O)[C@H](Oc2ccc3c(O)c(NC(=O)c4ccc(O)c(CC=C(C)C)c4)c(=O)oc3c2C)OC1(C)C"
Reply: 0.955

Ask: What does the data say about its normalized growth? Entry: "COc1c(O)cc2c(c1O)[C@H]1O[C@H](CO)[C@@H](O)[C@H](O)[C@@H]1OC2=O"
Reply: 0.992
